assay: qHTS RealTime-Glo MT Cell Viability Assay in HepG2 cells - 24 hour (AID 1224867); settings: RealTime-Glo luminescence; series mostly up to 76.8 µM; also: nearly all actives have a fitted effect of over 50% in size
Results filed as inconclusive are left out. The source made the active and inactive calls. Calls follow the shape of the dose curve; as a rule, active = well fitted cell-killing curve with a large enough effect in the repeat runs; inconclusive = weak or mixed curves; inactive = flat fitted curve, though single readings scatter.
Use one of these outcomes when replying: active, inactive

QUERY: Which outcome was assigned to `Cc1cc(Cl)ccc1O[C@H](C)C(=O)O` in this test?
RESULT: inactive

QUERY: Which outcome was assigned to `CN(C)S(=O)(=O)N(SC(F)(Cl)Cl)c1ccccc1` in this test?
RESULT: active

QUERY: Which outcome was assigned to `CCOC(=O)c1ccccc1S(=O)(=O)NC(=O)Nc1nc(Cl)cc(OC)n1` in this test?
RESULT: inactive

QUERY: Which outcome was assigned to `Clc1ccc(-c2ccccc2)cc1` in this test?
RESULT: inactive

QUERY: Which outcome was assigned to `SCc1ccco1` in this test?
RESULT: inactive

QUERY: Which outcome was assigned to `O=C(CCCN1CCC2(CC1)C(=O)NCN2c1ccccc1)c1ccc(F)cc1` in this test?
RESULT: inactive

QUERY: Which outcome was assigned to `Clc1ccc(C(c2ccc(Cl)cc2)C(Cl)(Cl)Cl)cc1` in this test?
RESULT: inactive

QUERY: Which outcome was assigned to `Cn1[nH]nnc1=S` in this test?
RESULT: inactive

QUERY: Which outcome was assigned to `C[C@]12CC[C@H]3[C@@H](CCC4=CC(=O)CC[C@@]43C)[C@@H]1CC[C@@H]2O` in this test?
RESULT: inactive

QUERY: Which outcome was assigned to CCCN(CC)CC1COC2(CCC(C(C)(C)C)CC2)O1 (stereo not drawn) in this test?
RESULT: inactive

QUERY: Which outcome was assigned to `O=c1[nH]c2ccccc2n1CCCN1CCC(n2c(=O)[nH]c3cc(Cl)ccc32)CC1` in this test?
RESULT: inactive

QUERY: Which outcome was assigned to `CC(=[OH+])/C=C(/C)[O-].CC(=[OH+])/C=C(\C)[O-].CC(=[OH+])/C=C(\C)[O-].[Fe]` in this test?
RESULT: inactive

QUERY: Which outcome was assigned to `C[C@]12Cc3nonc3C[C@@H]1CC[C@@H]1[C@@H]2CC[C@@]2(C)[C@H]1CC[C@]2(C)O` in this test?
RESULT: inactive
